Source of measurements: patent US11401279B2

Test system: U2OS/PD-L1 cells and Jurkat-PD-1-SHP cells
Assay: Src homology region 2 domain-containing phosphatase (SHP) assay
Format: cell-based
Details: Homo sapiens, U2OS; PathHunter chemiluminescence, 2 hours
Procedure: U2OS/PD-L1 cells (DiscoveRx Corporation) were maintained in McCoy's 5A medium with addition of 10% FBS, 0.25 μg/mL Puromycin. After removing the culture media, the cell medium was replaced with assay medium (RPMI1640 medium with 1% FBS). […] Chemiluminescent signal was recorded with TopCount reader (Perkin Elmer) after incubation at room temperature for 1 hour. […]
observable: IC50 (nM)

a: CCN1CCc2c(nc(C(=O)Nc3cccc(-c4cccc(NC(=O)c5nc6c(n5C)CCN(CC57CCC(C(=O)O)(CC5)C7)C6)c4Cl)c3Cl)n2C)C1 [Example 176, reference compound]
b: Cc1c(Nc2nc(C(F)F)nc3cc(CN4CCCC4)cnc23)cccc1-c1cccc(NC(=O)c2nc3c(n2C)CCN(CCC24CCC(C(=O)O)(CC2)C4)C3)c1Cl
c: Cc1c(Nc2nc(C(F)F)nc3cc(CN4CC[C@](C)(O)C4)cnc23)cccc1-c1cccc(NC(=O)c2nc3c(n2C)CCN(CCC24CCC(C(=O)O)(CC2)C4)C3)c1Cl
d: CN1CCc2c(nc(C(=O)Nc3cccc(-c4cccc(NC(=O)c5nc6c(n5C)CCN(CC57CCC(C(=O)O)(CC5)C7)C6)c4Cl)c3Cl)n2C)C1
Problem: Please list these compounds in decreasing order of IC50. Would you mind listing the labels in the order asked for?
Solution: a, d, c, b

a: Cc1c(NC(=O)c2nc3c(n2C)CCN(CCC24CCC(C(=O)O)(CC2)C4)C3)cccc1-c1cccc(Nc2nc(C(F)F)nc3cc(CN4CC[C@H](O)C4)cnc23)c1C
b: Cn1c(C(=O)Nc2cccc(-c3cccc(NC(=O)c4nc5c(n4C)CCN(C4CCC4)C5)c3Cl)c2Cl)nc2c1CCN(CC13CCC(C(=O)O)(CC1)C3)C2 [Example 178, reference compound]
Problem: Between the entries labeled a and b , whose measured IC50 is lower? # reply format: chosen label
Solution: a
(a: 2.9 nM, b: 13 nM)

I: Cc1c(Nc2nc(C(F)F)nc3cc(CN4C[C@@H](O)C[C@H]4C)cnc23)cccc1-c1cccc(NC(=O)c2nc3c(n2C)CCN(CCC24CCC(C(=O)O)(CC2)C4)C3)c1Cl
II: Cc1c(-c2nc3cc(CN4CC[C@@H](O)C4)cc(C#N)c3o2)cccc1-c1cccc(NC(=O)c2nc3c(n2C)CCN(CC24CCC(C(=O)O)(CC2)C4)C3)c1Cl
Problem: Which has the smaller recorded IC50, I or II ? Label of pick, please.
Solution: I

====

Experiment: In vivo pharmacokinetics in rats
Set-up: species or system Sprague Dawley rats
Conditions: male, Sprague-Dawley, plasma; rat, 1.0 mg/kg IV, cassette dosing; read-out: Vss
observable: Vd (L/kg)

1) Cc1c(NC(=O)c2nc3c(n2C)CCN(CCC24CCC(C(=O)O)(CC2)C4)C3)cccc1-c1cccc(Nc2nc(C(F)F)nc3cc(CN4CC[C@@](C)(O)C4)cnc23)c1C [Example 6] :: 2.99
2) Cc1c(Nc2nc(C(F)F)nc3cc(CN4CC[C@@H](O)C4)cnc23)cccc1-c1cccc(NC(=O)c2nc3c(n2C)CCN(CCC24CCC(C(=O)O)(CC2)C4)C3)c1Cl [Example 1] :: 1.75
3) Cc1c(-c2nc3cc(CN4CC[C@@H](O)C4)cc(C#N)c3o2)cccc1-c1cccc(NC(=O)c2nc3c(n2C)CCN(CC24CCC(C(=O)O)(CC2)C4)C3)c1Cl [Example 267] :: 2.22
4) Cc1c(Nc2nc(C(F)F)nc3cc(CN4CC[C@@](C)(O)C4)cnc23)cccc1-c1cccc(NC(=O)c2nc3c(n2C)CCN(CCC24CCC(C(=O)O)(CC2)C4)C3)c1Cl [Example 2] :: 2.63
5) CN1CCc2c(nc(C(=O)Nc3cccc(-c4cccc(NC(=O)c5nc6c(n5C)CCN(CC57CCC(C(=O)O)(CC5)C7)C6)c4Cl)c3Cl)n2C)C1 [Example 84] :: 2.45
